Target: T1, PARD3B_1, Q8TEW8
T1 sequence (Q8TEW8 196-299, limits assumed, looked up): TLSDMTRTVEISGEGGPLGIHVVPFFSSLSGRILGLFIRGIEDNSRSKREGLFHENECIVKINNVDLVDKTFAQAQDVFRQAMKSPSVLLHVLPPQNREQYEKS
Test: holdup assay
Parameters: key: below the threshold = too weak to quantify, mostly under pKd 3.1 to 4
Settings: plain residues with an end cap or a label only (N-terminal biotin on a linker: ttds)
Measure Name: pKd

RHTTSTETAV [HPV30-E6, P36809]: below the threshold
VDFPPKESSL [ACVR2A, P27037]: below the threshold
RLQRRRETQV [HPV18-E6, P06463]: below the threshold
SGSRPSATVV [HPV73-E6, Q82005]: below the threshold
RLPKIKETTV [FRMPD4, Q14CM0]: 3.45
PVRVCEETSL [OTULIN, Q96BN8]: 4.09
RPLPRKVSQL [DOCK4, Q8N1I0]: below the threshold
KKYVDAETSL [SLC4A7, Q9Y6M7]: 3.65
EMDRRPATVV [PLCB4, Q15147]: 3.68
NDPAWDETNL [ARHGEF7, Q14155]: 3.54
DKDPHSETAL [TMIGD1, Q6UXZ0]: below the threshold
SKPTRRETEV [HPV35-E6, P27228]: below the threshold
FHPLGADSQV [SLC2A1, P11166]: below the threshold
